Reported Percent Control is given for each of the following molecules.
test system: TBK1; conditions: Compound Concentration (nM):1000;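 note: KINOMEscan scanMAX binding as percent activity remaining versus control; lower means stronger binding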
Give the number; % is assumed, so skip it.

# annotated cases, reported Percent Control shown
molecule | quantity.unit | Percent Control
CC1=C(C(=O)Nc2ccc3[nH]ncc3c2)C(c2ccc3ccccc3c2)CC(=O)N1 (stereo not drawn) [GSK270822A] | % | 81
COc1cc(C=NNc2ncnc3c2cnn3-c2ccccc2)ccc1O [GW513184X] | % | 95
COc1ccccc1-c1cc(/C=C2\C(=O)Nc3ncc(Br)cc32)cc(Br)c1O [GW442130X] | % | 100
COc1ccc(COc2ccc(Cc3cnc(N)nc3N)cc2OC)cc1 [GW632580X] | % | 99
O=C(Nc1n[nH]c2nc(-c3ccc(O)cc3)c(Br)cc12)C1CC1 [SB-725317] | % | 86
CN(C)CCNC(=O)Nc1ccc(N(C)c2ccnc(Nc3ccc(CS(C)(=O)=O)cc3)n2)cc1.Cl [GW830900A] | % | 98
CCS(=O)(=O)c1ccc(OC)c(Nc2ncc(-c3cccc(F)c3)o2)c1 [GW621970X] | % | 100
COc1cccc(-n2ncc3c(N/N=C/c4ccncc4)ncnc32)c1 [GW784752X] | % | 100

Measured Percent Control, NS(=O)(=O)c1ccc(N/N=C2\C(=O)Nc3ccc(Cl)cc32)cc1 [GW280670X] : 100

---

system: PIK3CA(E545K); details: Compound Concentration (nM):1000
Class 1: Percent Control at least 80%. Class 0: Percent Control below 80%.

compound | target.entity | qualitative.label
NS(=O)(=O)c1ccc(N/N=C2\C(=O)Nc3ccc(-c4cnco4)cc32)cc1 | PIK3CA(E545K) | 1

INPUT: hey, is Percent Control for this one >= 80%? NS(=O)(=O)c1ccc(N/N=C2\C(=O)Nc3ccc(C(=O)NCCc4c[nH]cn4)cc32)cc1 [GW300660X]
OUTPUT: 1

INPUT: hey, is Percent Control for this one >= 80%? Cl.O=C(Nc1ccc(Oc2ccc3[nH]c(NC(=O)c4ccccc4)nc3c2)cc1)Nc1cc(C(F)(F)F)ccc1F [GW709042A]
OUTPUT: 1

INPUT: hey, is Percent Control for this one >= 80%? O=C1Nc2ccc(C(=O)c3ccco3)cc2C1=Cc1cc(Cl)c(O)c(Cl)c1 [GW406108X]
OUTPUT: 0

---

system: RPS6KA4(Kin.Dom.2-C-terminal); conditions: Compound Concentration (nM):1000
Class 1: Percent Control at least 90%. Class -1: Percent Control below 90%.

Reference set (5 entries):
molecule | qualitative.label
COc1cc(C)c(N(C)C(=O)CN(C)C)cc1Nc1nc(Nc2cccc(F)c2C(N)=O)c2cc[nH]c2n1 | -1
NS(=O)(=O)c1ccc(N/N=C2\C(=O)Nc3ccc(C(=O)NCCc4c[nH]cn4)cc32)cc1 [GW300660X] | -1
NS(=O)(=O)c1ccc(N/N=C2\C(=O)Nc3ccc(Cl)cc32)cc1 [GW280670X] | 1
CN1CCN(C(=O)c2ccc(NC(=O)Nc3ccc(N(C)c4ccnc(Nc5ccc(CS(C)(=O)=O)cc5)n4)cc3)cc2)CC1.Cl [GW830263A] | -1
COc1ccc2[nH]c3c4[nH]c5ccc(OC)cc5c4c4c(c3c2c1)C(=O)NC4=O [GW296115X] | -1

Moving on to the next molecule.
INPUT: hey, is Percent Control for this one >= 90%? O=C1Nc2ccc(C(=O)c3ccco3)cc2C1=Cc1cc(Cl)c(O)c(Cl)c1 [GW406108X]
OUTPUT: -1
